Measured values drawn from patent US20220160843A1 for this set.

Provide the reported MBEC of each item.
System: P. aeruginosa strain ATCC 17647
Assay: Minimal Biofilm Eradicating Concentration (MBEC), Calgary Biofilm Device
Assay type: cell-based, Pseudomonas aeruginosa
Conditions: 24 h biofilm, 24 h treatment; minimum concentration removing >95% of biofilm biomass (crystal violet)
Provide the reading as a plain figure in µg/mL.

Data request: Fill in the blank: the reported MBEC of GN3: Native lysin, WP_012273008.1/Lysozyme, SEQ ID NO: 2 (protein, listed as Pseudomonas putida) MRTSQRGLSLIKSFEGLRLQAYQDSVGVWTIGYGTTRGVKAGMKISKDQAERMLLNDVQRFEPEVERLIKVPLNQDQWDALMSFTYNLGAANLESSTLRRLLNAGNYAAAAEQFPRWNKAGGQVLAGLTRRRAAERELFLGAA is ____.
Data returned: 0.25

Data request: Fill in the blank: the reported MBEC of GN108: Native lysin, GenBank YP_009288673.1, SEQ ID NO: 26 (protein, Acinetobacter phage phiAB6) MILTKDGFSIIRNELFEGKLDQTQVDAINFIVEKATEYGLTYPEAAYLLATIYHETGLPSGYRTMQPIKEAGSDSYLRSKKYYPYIGYGYVQLTWEENYERIGKLIGIDLVKNPEKALEPLIAIQIAIKGMLNGWFTGVGFRRKRPVSKYNKQQYVAARNIINGKDKAELIAKYAIIFERALRSL is ____.
Data returned: 0.125

Data request: Fill in the blank: the reported MBEC of GN92: Modified GN4, N-terminal peptide KFFKFFKFFK with linker, SEQ ID NO: 7 (protein) KFFKFFKFFKAGAGAGAGAGAGAGAGASMRTSQRGIDLIKSFEGLRLSAYQDSVGVWTIGYGTTRGVTRYMTITVEQAERMLSNDIQRFEPELDRLAKVPLNQNQWDALMSFVYNLGAANLASSTLLKLLNKGDYQGAADQFPRWVNAGGKRLDGLVKRRAAERALFLEPLS is ____.
Data returned: 0.5

Data request: Fill in the blank: the reported MBEC of GN37: Native lysin, WP_014102102.1/VanY, SEQ ID NO: 12; first disclosed in WO/2017/049233 (protein, listed as Micavibrio aeruginosavorus) MTYTLSKRSLDNLKGVHPDLVAVVHRAIQLTPVDFAVIEGLRSVSRQKELVAAGASKTMNSRHLTGHAVDLAAYVNGIRWDWPLYDAIAVAVKAAAKELGVAIVWGGDWTTFKDGPHFELDRSKYR is ____.
Data returned: 0.25
